# System: SK-MEL-2 melanoma
# assay.notes: NCI-60 one-dose screen, 48 h (100 = growth as untreated, 0 = no growth, -100 = all killed)
# assay.context: 10 µM unless noted
About 83,000 compounds went through this panel and 20% of them were active in at least one assay; those are over-represented in the sample as a whole.

| compound | target.entity | growth [%] |
| --- | --- | --- |
| COc1cc2c3c(c4c5ccccc5[nH]c4c2c(OC)c1OC)C(=O)N(O)C3=O | SK-MEL-2 melanoma | 85.6 |
| CC(C)(C)n1cc(-c2ccnc(NCCCNS(=O)(=O)c3ccc(Cl)cc3)c2)c(-c2cccc(F)c2)n1 | SK-MEL-2 melanoma | 88.4 |
| COc1cc(-c2cc3ncccc3c3[nH]c(=O)c4cccnc4c23)cc(OC)c1OC | SK-MEL-2 melanoma | 44.6 |
| C/C(Cc1ccc(Cl)cc1)=C(/c1ccc(Cl)cc1)c1ccc(OCCN2CCCC2)cc1 | SK-MEL-2 melanoma | 105 |
| Clc1cc(Cl)cc(Nc2ccc3c(OCCCN4CCOCC4)cccc3n2)c1 | SK-MEL-2 melanoma | 87.8 |
| COC(=O)C(Cc1ccccc1)n1cc(COc2nc(Cl)nc(Nc3ccc(Cl)cc3)n2)nn1 (stereo not drawn) | SK-MEL-2 melanoma | 97.2 |
| Cc1cc(N(CCCNc2ccnc3cc(Cl)ccc23)Cc2ccco2)nc(N2CCOCC2)n1 | SK-MEL-2 melanoma | 93.2 |
| CC1=CC(=O)N(c2cccc3c(N4C(=O)C=C(C)C4=O)cccc23)C1=O | SK-MEL-2 melanoma | 87.5 |
| Cn1c(=O)c2c(nc(Br)n2CC(=O)Nc2ccc(F)cc2)n(C)c1=O | SK-MEL-2 melanoma | 99.1 |
| CN(C)CCCCC(C(=O)CBr)(c1ccccc1)c1ccccc1 | SK-MEL-2 melanoma | 53.8 |
| COc1ccc(-c2cc(/C=C/C(=O)c3ccc(OC)c(OC)c3)[nH]n2)cc1 | SK-MEL-2 melanoma | 69.2 |
| Nc1c2c(nc3ccc(Br)cc13)CC(c1ccccc1)CC2=O (stereo not drawn) | SK-MEL-2 melanoma | 59.2 |
| CCCCC[C@H]1C/C=C2/C(=O)C(Cl)=C[C@@H]2C/C=C\CCCC(=O)O[C@@H](CCCCC)C/C=C2/C(=O)C(Cl)=C[C@@H]2C/C=C\CCCC(=O)O1 | SK-MEL-2 melanoma | -46 |
